Assay: Caco-2 bidirectional permeability
Format: in vitro ADME
Details: human, tested at 10 μM
Test Readout: Papp A→B at 10 μM (×10⁻⁶ cm/s)

- Cpd Smiles: "CC(C)OC(=O)C(C)(C)N[P@](=O)(OC[C@H]1O[C@@](C#N)(c2ccc3c(N)ncnn23)[C@](C)(O)[C@@H]1O)Oc1ccccc1"
  Measured Value: 0.4

###

Experiment: in vitro
Format: in vitro ADME
Details: human plasma, 37°C, read-out: Plasma stability, half-life
Reported half-life at 2 μM by item:
Test Readout: half-life at 2 μM (h)

- Molecule: "CC(C)OC(=O)C(C)(C)N[P@](=O)(OC[C@H]1O[C@@](C#N)(c2ccc3c(N)ncnn23)[C@](C)(O)[C@@H]1O)Oc1ccccc1 [GS2]"
  Test Readout: "half-life at 2 μM"
  Cmp: ">"
  Measured Value: 10
- Molecule: "CC(C)OC(=O)[C@H](C)N[P@](=O)(OC[C@H]1O[C@@](C#N)(c2ccc3c(N)ncnn23)[C@](C)(O)[C@@H]1OC(=O)C(C)C)Oc1ccccc1 [GS-6620, reference compound]"
  Test Readout: "half-life at 2 μM"
  Cmp: "="
  Measured Value: 6.17

src = paper PMC6105845
